- Tested on: U2OS
- assay overview: Multiplex assay against U2OS
- Type: toxicity, cell-based
- condition: human, 24 h, 10 µM, compound concentration 10 uM, replicate 2
measurement label: Population Apoptotic (%)
Numbers only, in %.

Hey, quick one: what's Population Apoptotic (%) for each of these?
1. CCCCCCNC(=O)Nc1ccc(S(=O)(=O)Nc2ccc(CCNC[C@H](O)COc3ccc(O)cc3)cc2)cc1
2. Nc1nc(CC(=O)Nc2ccc(CCNC[C@H](O)c3ccccc3)cc2)cs1
3. CN1CCC(C(=O)c2cccc(NC(=O)c3c(F)cc(F)cc3F)n2)CC1

88
76
66

Enter recorded Population Apoptotic (%) with U2OS for COc1c(Nc2ccc(S(C)(=O)=O)nc2C)ncnc1OC1CCN(C(=O)OC(C)C)CC1 here.
83

Source listed as ChEMBL document CHEMBL5058577.
